- Test system: ISC-enriched organoids
- Assay procedure: Primary screen, 384-well 2.5-D organoid differentiation (ENR+CD, 6 days, Target Selective Inhibitor Library, vs whole-plate median): ATP (CellTiter-Glo 3D, CTG)
- Settings: primary screen, dose 0.40 uM, standard z score of FC
Where a name gives a salt, the structure may show the parent alone.
Measured endpoint: Z.CTG

Challenge: Would you mind telling me what Z.CTG value was observed for C[C@H](Oc1cc(-c2cnn(C3CCNCC3)c2)cnc1N)c1c(Cl)ccc(F)c1Cl [(S)-crizotinib] ?
Response given: 0.130

Challenge: Which Z.CTG is listed for O=C(O)C(Cc1ccccc1[N+](=O)[O-])=NNc1nc(-c2ccc(Cl)c(Cl)c2)cs1 (mixture of isomers) ?
Response given: −0.314

Challenge: Looking for the measured Z.CTG of O=C(/C=C/c1cccc(S(=O)(=O)Nc2ccccc2)c1)NO , can you help?
Response given: −0.133

Challenge: Which Z.CTG is listed for CNC(=O)[C@H](Cc1ccccc1)NC(=O)[C@H](CC(C)C)[C@H](CSc1cccs1)C(=O)NO ?
Response given: −0.226

Challenge: State the recorded Z.CTG for this entry: CC[C@@H]1C(=O)N(C)c2cnc(Nc3ccc(C(=O)NC4CCN(C)CC4)cc3OC)nc2N1C1CCCC1
Response given: −1.275

Challenge: Please look up its Z.CTG: CN1CCc2cc3c(cc2[C@H]1[C@@H]1OC(=O)c2c1ccc1c2OCO1)OCO3 [(+)-Bicuculline]
Response given: −0.069

Challenge: Bench note: what Z.CTG did COc1cc(F)c(C(C)C)cc1-c1ccc(C(F)(F)F)cc1CN1C(=O)O[C@H](c2cc(C(F)(F)F)cc(C(F)(F)F)c2)[C@@H]1C show?
Response given: 0.084

Challenge: Fill in the blank: the reported Z.CTG of COc1cc(CCc2cc(NC(=O)c3ccc(N4CC(C)NC(C)C4)cc3)n[nH]2)cc(OC)c1 (stereo not shown) is ____.
Response given: 0.241

Challenge: # lookup: Z.CTG of COc1cc(N2CCC(N3CCN(C)CC3)CC2)ccc1Nc1ncc(Cl)c(Nc2ccccc2P(C)(C)=O)n1
Response given: 0.145

Challenge: Requested field: Z.CTG. Item: CC(=O)Nc1nc2c(Oc3cc(-c4ccc(C(F)(F)F)cc4)ncn3)cccc2s1
Response given: 0.269

Challenge: // Z.CTG lookup, key: C[C@@H]1COCCN1c1cc(C2(S(C)(=O)=O)CC2)nc(-c2cccc3[nH]ccc23)n1
Response given: −0.521

Challenge: Could you tell me which Z.CTG is on file for O=C(O)c1cccc(-c2noc(-c3ccccc3F)n2)c1 ?
Response given: −0.813

Challenge: # input compound: O=C1NC(=O)/C(=C/c2ccc(-c3ccc(F)cc3O)o2)S1 ; wanted: its Z.CTG
Response given: −0.176

Challenge: State the recorded Z.CTG for this entry: O=c1cc(-c2ccc(O)cc2)oc2cc(O)cc(O)c12
Response given: 0.510

Challenge: Fill in: Z.CTG of COc1cc2c(cc1O)CC[C@@H]1[C@@H]2CC[C@]2(C)[C@@H](O)CC[C@@H]12 is ___
Response given: 0.957

Challenge: Which measured Z.CTG value corresponds to Cc1c(-c2ccc(O)cc2)n(Cc2ccc(OCCN3CCCCCC3)cc2)c2ccc(O)cc12 [Bazedoxifene HCl] ?
Response given: 0.873

----------
Can you tell me Dose.FC.LYZ.NS (log 2 fold change, basal lysozyme secretion) for the items I'm about to list?
- Test system: ISC-enriched organoids
- Assay procedure: Primary screen, 384-well 2.5-D organoid differentiation (ENR+CD, 6 days): basal lysozyme secretion (LYZ.NS)
- Type: cell-based, murine
- Settings: dose 0.40 uM; vs plate median

Challenge: Report Dose.FC.LYZ.NS (log 2 fold change, basal lysozyme secretion) for O=C(c1cncc(Br)c1)N1CCC(N2CCCC2)CC1 tested on ISC-enriched organoids.
Response given: −0.006

Challenge: Form entry - test system: ISC-enriched organoids; read-out: Dose.FC.LYZ.NS (log 2 fold change, basal lysozyme secretion); compound: CC(/C=C/C(=O)NO)=C\[C@@H](C)C(=O)c1ccc(N(C)C)cc1
Response given: −0.195

Challenge: For ISC-enriched organoids, provide Dose.FC.LYZ.NS (log 2 fold change, basal lysozyme secretion) of Nc1nc(N)c2nc(-c3cccc(O)c3)c(-c3cccc(O)c3)nc2n1 please.
Response given: −0.026

Challenge: Lab note: need Dose.FC.LYZ.NS (log 2 fold change, basal lysozyme secretion) for CC(C)C[C@@H](C(=O)N[C@H](C(=O)OC1CCCC1)c1ccccc1)[C@H](O)C(=O)NO on ISC-enriched organoids, anyone have it?
Response given: −0.106

Challenge: Form entry - test system: ISC-enriched organoids; read-out: Dose.FC.LYZ.NS (log 2 fold change, basal lysozyme secretion); compound: CCCS(=O)(=O)Nc1ccc(F)c(C(=O)c2c[nH]c3ncc(-c4ccc(Cl)cc4)cc23)c1F
Response given: 0.053

Challenge: Observed Dose.FC.LYZ.NS (log 2 fold change, basal lysozyme secretion) on ISC-enriched organoids for Cl.Cl.Cl.O[C@@H](COc1cccc2ncccc12)CN1CCN([C@@H]2c3ccccc3[C@@H]3[C@H](c4ccccc42)C3(F)F)CC1 [Zosuquidar (LY335979) 3HCl] , please.
Response given: 0.080

Challenge: # value lookup — system ISC-enriched organoids, readout Dose.FC.LYZ.NS (log 2 fold change, basal lysozyme secretion), item COc1cc2/c(=N/c3ccc(Br)cc3F)nc[nH]c2cc1OCC1CCN(C)CC1 [Vandetanib (ZD6474)]
Response given: −0.091

----------
- Test system: ISC-enriched organoids
- Assay procedure: Primary screen, 384-well 2.5-D organoid differentiation (ENR+CD, 6 days): basal lysozyme secretion (LYZ.NS)
- Assay type: cell-based, murine
- Settings: strictly standardized mean difference; primary screen; 1st of the 4 dose lines of the treatment (dose not given)
- Description: High-throughput screening.
Measured endpoint: SSMD.LYZ.NS
Returns: the value as a bare number; no unit string appended.

Challenge: Report SSMD.LYZ.NS for Cc1ccc(NC(=O)c2ccc(CN3CCN(C)CC3)cc2)cc1Nc1nccc(-c2cccnc2)n1 [Imatinib (STI571)] please.
Response given: 0.326

Challenge: What value of measured SSMD.LYZ.NS is listed for O=[N+]([O-])C=Cc1ccc2c(c1)OCO2 ?
Response given: 0.518

Challenge: Consider the molecule shown here: O=C(NCCN1CCOCC1)c1ccc(Cl)cc1 [Moclobemide (Ro 111163)] What is its recorded SSMD.LYZ.NS?
Response given: 0.302

Challenge: Name the recorded SSMD.LYZ.NS for O=C(O)Cn1nnc(-c2cc(N3CCC(Oc4cc(F)ccc4Br)CC3)no2)n1 [MK-8245] .
Response given: 0.168

Challenge: Entry O=C(Nc1ccccc1)c1cc([N+](=O)[O-])ccc1Cl [GW9662] has what SSMD.LYZ.NS?
Response given: 0.272

Challenge: So what does the record say about SSMD.LYZ.NS for C=CCn1c(=O)c2cnc(Nc3ccc(N4CCN(C)CC4)cc3)nc2n1-c1cccc(C(C)(C)O)n1 [MK-1775] ?
Response given: 0.317

Challenge: Item CNC(=O)[C@H](Cc1c[nH]c2ccccc12)NC(=O)[C@@H](CC(=O)NO)CC(C)C [Ilomastat (GM6001, Galardin)] has what recorded SSMD.LYZ.NS?
Response given: 0.305

Challenge: Query: SSMD.LYZ.NS; subject: Nc1nc(CC(=O)Nc2ccc(CCNC[C@H](O)c3ccccc3)cc2)cs1 [Mirabegron]
Response given: 1.039

Challenge: Recorded SSMD.LYZ.NS for CC(C)C[C@H](NC(=O)CNC(=O)c1cc(Cl)ccc1Cl)B(O)O [MLN2238] , please?
Response given: −1.766

Challenge: What SSMD.LYZ.NS value was documented for this molecule, CC(C)(C)Cn1c(N)nc2ccc(-c3[nH]c(C(C)(C)C)nc3-c3ccc(F)cc3)nc21 [LY2228820] ?
Response given: 0.186

Challenge: Which value of SSMD.LYZ.NS has been reported for CCC(CC)(NC(=O)C(C)C)C(=O)N[C@@H](CCCN=C(N)N)C(=O)NC1(C(=O)NC(c2ccc(F)cc2)c2ccc(F)cc2)CCCC1 [MM-102] in the records?
Response given: −0.233

Challenge: What measured SSMD.LYZ.NS goes with Oc1ccc2ccccc2c1SSc1c(O)ccc2ccccc12 [IPA-3] ?
Response given: 0.027

Challenge: Suppose we examine the molecule CCN1CCC[C@H]1CNC(=O)c1cc(S(N)(=O)=O)ccc1OC [Levosulpiride] ; what SSMD.LYZ.NS value has been reported?
Response given: 0.092

Challenge: Using the record for NC(=O)c1ccc(I)c([N+](=O)[O-])c1 [Iniparib (BSI-201)] , report its SSMD.LYZ.NS.
Response given: 0.375

----------
- Tested on: ISC-enriched organoids
- Assay procedure: Primary screen, 384-well 2.5-D organoid differentiation (ENR+CD, 6 days): carbachol-induced lysozyme secretion (LYZ.S)
- Format: cell-based, murine
- Settings: standard z score; primary screen; 2nd of the 4 dose lines of the treatment (dose not given)
- Description: High-throughput screening.
Rule: Z.LYZ.S below 0.2 gives true, anything at or above gives false.

Challenge: Criterion: Z.LYZ.S strictly below 0.2. Is it met by CC(C)(C)c1cc(C(C)(C)C)c(NC(=O)c2c[nH]c3ccccc3c2=O)cc1O ?
Response given: false

Challenge: Does the reported Z.LYZ.S of CC(C)CCNC(=O)[C@H](CC(C)C)NC(=O)[C@H]1O[C@@H]1C(=O)O [Loxistatin Acid (E-64C)] stay below 0.2?
Response given: false

Challenge: Quick check: Z.LYZ.S of CCn1c(=O)c2c(nc(/C=C/c3ccc(OC)c(OC)c3)n2C)n(CC)c1=O under 0.2?
Response given: true

Challenge: Problem: For the compound CCN(CC)CC(=O)Nc1c(C)cccc1C , is Z.LYZ.S under 0.2?
Response given: true

Challenge: Lab note: confirm whether the reported Z.LYZ.S for this compound is below 0.2, equality not counting. compound: O=C1[C@H](Cc2ccc(O)cc2)N2C(=O)CCN(C(=O)NCc3ccccc3)[C@H]2CN1Cc1cccc2ccccc12
Response given: false

Challenge: Dear reviewer, please state whether C#Cc1cccc(Nc2ncnc3cc4c(cc23)OCCOCCOCCO4)c1 has Z.LYZ.S strictly beneath 0.2.
Response given: true

Challenge: Please state whether Z.LYZ.S is below 0.2 for Cl.Cl.NC1(c2ccc(-c3nc4ccn5c(=O)[nH]nc5c4cc3-c3ccccc3)cc2)CCC1 [MK-2206 2HCl]
Response given: false
